The reported numbers originate from paper PMC9026967.

pIC50 reference
MEASUREMENT TARGET: M. tuberculosis isocitrate lyase (MtICL) (Mycobacterium tuberculosis, UniProt P9WKK7)
Construct: gene icl
Sequence (P9WKK7 whole entry): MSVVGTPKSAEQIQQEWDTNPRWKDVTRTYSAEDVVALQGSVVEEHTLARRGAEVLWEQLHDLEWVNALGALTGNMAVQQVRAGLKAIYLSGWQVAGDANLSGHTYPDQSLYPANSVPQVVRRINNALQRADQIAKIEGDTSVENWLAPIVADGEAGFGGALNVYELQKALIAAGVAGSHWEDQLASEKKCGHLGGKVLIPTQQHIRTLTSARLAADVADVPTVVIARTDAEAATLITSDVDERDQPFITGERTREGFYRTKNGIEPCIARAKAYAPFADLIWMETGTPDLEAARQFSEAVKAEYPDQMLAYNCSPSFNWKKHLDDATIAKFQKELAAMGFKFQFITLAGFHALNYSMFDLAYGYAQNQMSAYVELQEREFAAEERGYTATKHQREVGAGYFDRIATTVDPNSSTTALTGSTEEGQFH
PROCEDURE SUMMARY: biochemical
Lab note: report pIC50 as minus log10 of the concentration in molar units, number only.

[
  {
    "MOLECULE": "O=C(O)C(=O)CBr [3-BP, 3-bromopyruvic acid]",
    "ASSAY VALUE": 4.20
  }
]

// moving on: another record for pIC50
Can you share its pIC50? I mean this molecule: C=C(CC(=O)O)C(=O)O [IA, itaconic acid]
4.41

* * *

MEASUREMENT TARGET: M. tuberculosis isocitrate lyase (MtICL) (Mycobacterium tuberculosis, UniProt P9WKK7)
Construct: gene icl
PROCEDURE SUMMARY: biochemical
METRIC: pIC50
Value format note: pIC50 is -log10 of concentration (mol/L); just state the number.

Lab note: need pIC50 for O=c1ccc2ccc(O)c(O)c2o1 on M. tuberculosis isocitrate lyase (MtICL) (Mycobacterium tuberculosis, UniProt P9WKK7), anyone have it?
4.61
